test system: MDA-MB-468 breast; assay: NCI tumour cell line growth inhibition, 48 h; in the data active means GI50 below about 0.43 µM; inactive means the rest
Your response should consist of one outcome taken from active, inactive

Here are 2 compounds together with their reported answers.
INSERT INTO measurements (compound, assigned_label) VALUES
  ('CC1(C)N=C(N)N=C(N)N1c1cccc(Br)c1', 'active'),
  ('Cc1cc(Cl)cc(Cc2cc(Cl)cc(C)c2O)c1O', 'inactive');

Check the results log: what was the call for CC1=C([Se]CC(OC(=O)[C@@H](CO)NC(=O)OC(C)(C)C)C(=O)NCCCCCC(=O)OCc2ccccc2)C(=O)c2ccccc2C1=O (stereo partly drawn) ? inactive

* * *

tested on: NCI-H226 lung; test: NCI tumour cell line growth inhibition, 48 h
Observed property: GI50

These recorded examples may help you get a feel for the data.
INSERT INTO measurements (test_smiles, measured) VALUES
  ('O=C(/C=C/c1cccc(Br)c1)c1nc2ccccc2n1Cc1ccc(Br)cc1', '2.45 µM'),
  ('CC(=O)Nc1cccc(-c2nc3cc(-c4ccc(O)cc4)ccc3n2C)c1', '7.76 µM'),
  ('Cc1ccc(-c2ccc(SCC(=O)Nc3ccc(Cl)c(C(F)(F)F)c3)nn2)cc1', '8.36 µM');

Now, please, on to the next compound.
Quote GI50 reported for `C[C@H]1[C@@H](CC(=O)N[C@@H](Cc2coc3ccccc23)B(O)O)O[C@@H]2OC3(C)CC[C@H]4[C@H](C)CC[C@@H]1[C@@]24OO3` please. 0.876 µM

* * *

system: MDA-MB-468 breast; test: NCI tumour cell line growth inhibition, 48 h
Observed property: GI50

These recorded examples may help you get a feel for the data.
INSERT INTO assay_data (test_smiles, target_entity, measured) VALUES
  ('C[C@H]1[C@@H](CC(=O)N[C@@H](Cc2coc3ccccc23)B(O)O)O[C@@H]2OC3(C)CC[C@H]4[C@H](C)CC[C@@H]1[C@@]24OO3', 'MDA-MB-468 breast', '917 nM'),
  ('C=C1C(=O)O[C@H]2[C@H]1CC/C(COC(=O)NCCCCCCCCNC(=O)OC/C1=C/CC[C@@]3(C)O[C@H]3[C@H]3OC(=O)C(=C)[C@@H]3CC1)=C\CC[C@@]1(C)O[C@@H]21', 'MDA-MB-468 breast', '191 nM'),
  ('COc1ccc(N(C)c2nc(Cl)nc3cnn(C)c23)cc1', 'MDA-MB-468 breast', '< 10 nM');

Now, please, on to the next molecule.
Quote GI50 reported for `CN(C)c1ccc(N=C2C=CC(=O)c3ccccc32)cc1` please. 2150 nM

* * *

system: MDA-MB-468 breast; assay: NCI tumour cell line growth inhibition, 48 h
Observed property: TGI (µM)
API: value field is a number in µM; no unit string.

These recorded examples may help you get a feel for the data.
INSERT INTO assay_data (compound, target_entity, measured) VALUES
  ('O=C(/C=C/c1cccc(Br)c1)c1nc2ccccc2n1Cc1ccc(Br)cc1', 'MDA-MB-468 breast', 3.85),
  ('CC1=C([Se]CC(OC(=O)[C@@H](CO)NC(=O)OC(C)(C)C)C(=O)NCCCCCC(=O)OCc2ccccc2)C(=O)c2ccccc2C1=O (stereo partly drawn)', 'MDA-MB-468 breast', 3.16),
  ('C#Cc1cccc(NC(=O)c2ccc(NC(=O)CCl)cc2)c1', 'MDA-MB-468 breast', 76.9),
  ('COCCn1cc(-c2csc(-c3c[nH]c4ccc(Br)cc34)n2)c2cccnc21', 'MDA-MB-468 breast', 7.63),
  ('CCC(=O)Nc1cc(Nc2cc(NC3CC3)n3ncc(C#N)c3n2)ccc1C', 'MDA-MB-468 breast', 4.06);

Quote TGI reported for `COc1cccc(Nc2nccc(-c3cnn4ncccc34)n2)c1` please. 0.106

Quote TGI reported for `COC1=CC(=O)c2nc(Cl)ccc2C1=O` please. 2.67
